Recorded in vitro antibacterial activity of individual antibiotic (MIC50) by entry
system: P. aeruginosa; test: in vitro antibacterial activity (MIC50); type: cell-based
I only need the number, in mg/mL, no unit after it.

Illustrative cases are given below, each with its answer.
Molecule	Unit name	Recorded value
C[C@@H](O)[C@H]1C(=O)N2C(C(=O)O)=C(SCCN=CN)C[C@H]12 [Imipenem]	mg/mL	0.91
CO[C@H]1/C=C/O[C@@]2(C)Oc3c(C)c(O)c4c(O)c(c(/C=N/N5CCN(C)CC5)c(O)c4c3C2=O)NC(=O)/C(C)=C\C=C\[C@H](C)[C@H](O)[C@@H](C)[C@@H](O)[C@@H](C)[C@H](OC(C)=O)[C@@H]1C [Rifampicin]	mg/mL	19.08

Okay, next one:
Data request: Let me know recorded in vitro antibacterial activity of individual antibiotic (MIC50) for NC[C@H]1O[C@H](O[C@H]2[C@H](O)[C@@H](O[C@H]3O[C@H](CO)[C@@H](O)[C@H](N)[C@H]3O)[C@H](N)C[C@@H]2N)[C@H](N)C[C@@H]1O [Tobramycin] , thanks.
Data returned: 0.44
